targetDesc: T1, recombinant BACE1 (BACE1 extracellular domain, R&D Systems Cat#931-AS) (UniProt P56817 22-457)
T1 construct: extracellular domain; also called BACE1 extracellular domain protein
T1 sequence (P56817 22-457): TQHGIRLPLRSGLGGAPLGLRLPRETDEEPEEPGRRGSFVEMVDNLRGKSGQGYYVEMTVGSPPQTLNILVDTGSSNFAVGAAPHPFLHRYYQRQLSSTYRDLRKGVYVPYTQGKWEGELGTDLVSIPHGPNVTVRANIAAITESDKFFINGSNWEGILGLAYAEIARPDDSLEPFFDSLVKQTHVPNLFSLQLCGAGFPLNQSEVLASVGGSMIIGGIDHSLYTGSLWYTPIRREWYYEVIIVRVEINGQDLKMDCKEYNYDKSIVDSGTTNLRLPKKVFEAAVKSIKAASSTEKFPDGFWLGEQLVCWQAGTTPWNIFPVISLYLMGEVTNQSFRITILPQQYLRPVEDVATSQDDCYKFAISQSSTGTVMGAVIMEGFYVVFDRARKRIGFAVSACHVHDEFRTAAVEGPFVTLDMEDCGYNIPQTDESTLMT
assayProcedure: SPR Biacore
The label is condition met for Kd below 20 nM and condition not met for Kd equal to or exceeding 20 nM.

Worked examples, 3 binders total:
• 2H8.37 (antibody, human IgG1, V domains shown, human IgG1/kappa; also called 2H8_HC + 2H8_LCvar7) VH: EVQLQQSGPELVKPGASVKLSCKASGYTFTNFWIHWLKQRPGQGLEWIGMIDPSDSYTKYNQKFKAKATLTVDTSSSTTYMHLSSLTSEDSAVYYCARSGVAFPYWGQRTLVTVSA VL: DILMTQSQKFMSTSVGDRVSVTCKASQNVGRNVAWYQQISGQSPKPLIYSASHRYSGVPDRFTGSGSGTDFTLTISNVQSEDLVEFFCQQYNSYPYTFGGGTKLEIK = condition met
• 2H8.28 (antibody, human IgG1, V domains shown, human IgG1/kappa; also called 2H8_HCvar4 + 2H8_LCvar5) VH: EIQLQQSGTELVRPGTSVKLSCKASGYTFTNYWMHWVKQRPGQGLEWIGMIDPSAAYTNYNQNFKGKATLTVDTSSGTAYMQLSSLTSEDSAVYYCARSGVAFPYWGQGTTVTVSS VL: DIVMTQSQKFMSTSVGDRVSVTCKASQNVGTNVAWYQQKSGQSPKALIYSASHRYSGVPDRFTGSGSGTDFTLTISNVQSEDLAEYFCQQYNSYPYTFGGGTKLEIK = condition not met
• 2H8.10 (antibody, human IgG1, V domains shown, human IgG1/kappa; also called 2H8_HCvar4 + 2H8_LCvar2) VH: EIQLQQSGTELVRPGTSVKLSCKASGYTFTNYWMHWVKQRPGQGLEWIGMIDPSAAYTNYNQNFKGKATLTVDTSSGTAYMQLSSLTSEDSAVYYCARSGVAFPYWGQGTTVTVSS VL: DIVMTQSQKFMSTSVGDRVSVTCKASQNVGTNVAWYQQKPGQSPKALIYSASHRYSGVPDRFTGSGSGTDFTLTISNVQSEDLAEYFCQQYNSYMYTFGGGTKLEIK = condition not met

# strict comparison: is reported Kd < 20 nM? input = 2H8.26 (antibody, human IgG1, V domains shown, human IgG1/kappa; also called 2H8_HCvar2 + 2H8_LCvar5) VH: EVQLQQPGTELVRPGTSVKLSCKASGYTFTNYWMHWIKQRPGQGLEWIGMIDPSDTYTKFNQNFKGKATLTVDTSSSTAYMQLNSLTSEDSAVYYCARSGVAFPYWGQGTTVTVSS VL: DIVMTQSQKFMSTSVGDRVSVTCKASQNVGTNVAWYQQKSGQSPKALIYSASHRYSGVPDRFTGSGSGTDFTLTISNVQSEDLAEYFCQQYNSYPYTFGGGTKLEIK
condition met

# strict comparison: is reported Kd < 20 nM? input = 2H8.17 (antibody, human IgG1, V domains shown, human IgG1/kappa; also called 2H8_HCvar5 + 2H8_LCvar3) VH: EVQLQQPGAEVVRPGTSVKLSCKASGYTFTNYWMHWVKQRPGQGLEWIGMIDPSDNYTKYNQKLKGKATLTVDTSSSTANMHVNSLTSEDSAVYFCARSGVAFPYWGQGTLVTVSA VL: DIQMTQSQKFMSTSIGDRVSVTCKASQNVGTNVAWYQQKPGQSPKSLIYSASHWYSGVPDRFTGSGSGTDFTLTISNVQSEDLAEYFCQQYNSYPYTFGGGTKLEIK
condition met
